System: HCI11 (cells of an ER-positive luminal breast cancer xenograft)
test_name: cell viability (% of vehicle); higher = less cytotoxic;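 note: PDX cells carrying CMV promoter-driven luciferase, viability read as total photon flux per second by IVIS imaging following D-luciferin, vehicle control 0.1% DMSO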
condition_details: 10 µM; 72 h
measurement_name: cell viability
Enter the number alone.

Use the examples below as a reference point.
CCCCCOc1ccc(-c2ccc(-c3ccc(C(=O)N[C@H]4C[C@@H](O)[C@@H](O)NC(=O)[C@@H]5[C@@H](O)[C@@H](C)CN5C(=O)[C@H]([C@@H](C)O)NC(=O)[C@H]([C@H](O)[C@@H](O)c5ccc(O)cc5)NC(=O)[C@@H]5C[C@@H](O)CN5C(=O)[C@H]([C@@H](C)O)NC4=O)cc3)cc2)cc1	92.4
CC(C)CC(NC(=O)C(CCc1ccccc1)NC(=O)CN1CCOCC1)C(=O)NC(Cc1ccccc1)C(=O)NC(CC(C)C)C(=O)C1(C)CO1 (configuration not stated)	55.9
CC(=O)c1c(C)c2cnc(Nc3ccc(N4CCNCC4)cn3)nc2n(C2CCCC2)c1=O.O=S(=O)(O)CCO	154
CSc1ccc2c(c1)N(CCC1CCCCN1C)c1ccccc1S2.Cl (configuration not stated) [Thioridazine HCl]	88.4

Answer with the recorded cell viability for the compound listed here: `CCn1cc(C(=O)O)c(=O)c2cc(F)c(N3CCNCC3)nc21` 109

----------
Test system: WHIM2 (cells of a triple-negative basal-like breast cancer xenograft)
test_name: cell viability (% of vehicle); higher = less cytotoxic
condition_details: 10 µM; 72 h
In this section we review reported cell viability values for a set of molecules.
Enter the number alone.

CCOc1cc(CC(=O)NC(CC(C)C)c2ccccc2N2CCCCC2)ccc1C(=O)O (configuration not stated) [Repaglinide]	96.8
CNCC(O)c1ccc(O)c(O)c1.O=C(O)C(O)C(O)C(=O)O (configuration not stated) [Epinephrine Bitartrate]	67.4
CCC1OC(=O)C(C)C(OC2CC(C)(OC)C(O)C(C)O2)C(C)C(OC2OC(C)CC(N(C)C)C2O)C(C)(O)CC(C)CN(C)C(C)C(O)C1(C)O.O.O (configuration not stated) [Azithromycin Dihydrate]	102
C=CC(=O)Nc1cc(Nc2nccc(-c3cn(C)c4ccccc34)n2)c(OC)cc1N(C)CCN(C)C	44.5
CCCCc1oc2ccc(NS(C)(=O)=O)cc2c1C(=O)c1ccc(OCCCN(CCCC)CCCC)cc1 [Dronedarone]	41.3
O=C(O)C1=CC(=NNc2ccc([O-])c(C(=O)[O-])c2)C=CC1=O.[Na+].[Na+] [Olsalazine Sodium]	86.8

Answer with the recorded cell viability for the molecule listed here: CN(CC/C=C1C2=CC=CC=C2C=CC3=CC=CC=C3\1)C.Cl [Cyclobenzaprine HCl] 89.6

----------
Test system: HCI09 (cells of a triple-negative luminal androgen receptor type breast cancer xenograft)
test_name: cell viability (% of vehicle); higher = less cytotoxic
condition_details: 10 µM; 72 h
In this section we review reported cell viability values for a set of molecules.
Enter the number alone.

Answer with the recorded cell viability for the molecule listed here: N#CCC(C1CCCC1)n1cc(-c2ncnc3[nH]ccc23)cn1 (stereo unspecified) 106

Answer with the recorded cell viability for the molecule listed here: CCCCCOc1ccc(-c2cc(-c3ccc(C(=O)NC4CC(O)C(O)NC(=O)C5C(O)C(C)CN5C(=O)C(C(O)CC(N)=O)NC(=O)C(C(O)C(O)c5ccc(O)c(OS(=O)(=O)[O-])c5)NC(=O)C5CC(O)CN5C(=O)C(C(C)O)NC4=O)cc3)no2)cc1.[Na+] (stereo unspecified) [Micafungin sodium] 85.7

Answer with the recorded cell viability for the molecule listed here: COCC1=C(C(=O)OC(C)OC(=O)OC(C)C)N2C(=O)[C@@H](NC(=O)/C(=N\OC)c3csc(N)n3)[C@H]2SC1 (stereo partly specified) [Cefpodoxime Proxetil] 102

Answer with the recorded cell viability for the molecule listed here: COc1ccnc(C[S+]([O-])c2nc3cc(OC(F)F)ccc3[nH]2)c1OC (stereo unspecified) [Pantoprazole] 102

Answer with the recorded cell viability for the molecule listed here: CC[C@H](C)[C@@H]1NC(=O)[C@H](Cc2ccc(O)cc2)NC(=O)[C@@H](N)CSSC[C@@H](C(=O)N2CCC[C@H]2C(=O)N[C@@H](CC(C)C)C(=O)NCC(N)=O)NC(=O)[C@H](CC(N)=O)NC(=O)[C@H](CCC(N)=O)NC1=O [Oxytocin] 99.7

Answer with the recorded cell viability for the molecule listed here: CC12CCC(O)CC1=CCC1C2CCC2(C)C(n3cnc4ccccc43)=CCC12 (stereo unspecified) 54.3

----------
Tested on: UCD52 (cells of a triple-negative basal-like breast cancer xenograft)
test_name: cell viability (% of vehicle); higher = less cytotoxic
condition_details: 10 µM; 72 h
We label by threshold. Values of cell viability strictly beneath 100 are class 1. Values of 100 and up are class 0.

Cl.Cl.NC(=NCCCCCCN=C(N)N=C(N)Nc1ccc(Cl)cc1)N=C(N)Nc1ccc(Cl)cc1 [Chlorhexidine HCl]	class 1

Item CCC(CC)C(NC(C)=O)C1C(N=C(N)N)CC(C(=O)O)C1O (configuration not stated) : cell viability beneath 100, strictly? class 1

Item C[N+]1(C)CCC(OC(=O)C(O)(c2ccccc2)C2CCCC2)C1.[Br-] (configuration not stated) [Glycopyrrolate] : cell viability beneath 100, strictly? class 1

Item `CCCc1nc(C)c2c(=O)nc(-c3cc(S(=O)(=O)N4CCN(CC)CC4)ccc3OCC)[nH]n12` : cell viability beneath 100, strictly? class 0

Item N=C(N)NCCCC[C@@H]1NC(=O)CCSSC[C@@H](C(N)=O)NC(=O)[C@@H]2CCCN2C(=O)[C@H](Cc2c[nH]c3ccccc23)NC(=O)[C@H](CC(=O)O)NC(=O)CNC1=O [Eptifibatide] : cell viability beneath 100, strictly? class 0

Item `CN(C)C(=O)c1cc2cnc(Nc3ccc(N4CCNCC4)cn3)nc2n1C1CCCC1` : cell viability beneath 100, strictly? class 0

Item `Cc1ccc(-c2cc(C(F)(F)F)nn2-c2ccc(S(N)(=O)=O)cc2)cc1` : cell viability beneath 100, strictly? class 1

----------
System: UCD52
test_name: cell viability (% of vehicle); higher = less cytotoxic
condition_details: 10 µM; 72 h
Counter-ions that a name gives are not always drawn.
measurement_name: cell viability
Enter the number alone.

Use the examples below as a reference point.
CC(C)(C)NCC(O)COc1cccc2c1CCC(O)=N2.Cl (configuration not stated) [Carteolol HCl]	114
O=C(O)CO.[NH2-].[NH2-].[Pt+2]	33.1
CS(=O)(=O)O.Cc1ccc(N(CC2=NCCN2)c2cccc(O)c2)cc1 [Phentolamine Mesylate]	99.5
Nc1ccn([C@@H]2O[C@H](CO)[C@@H](O)C2(F)F)c(=O)n1 [Gemcitabine HCl]	133
CC1CC2C3CCC4=CC(=O)C=CC4(C)C3(Cl)C(O)CC2(C)C1(OC(=O)c1ccco1)C(=O)CCl (configuration not stated) [Mometasone furoate]	140

Specify cell viability for `Cc1cc(=O)[nH]c(=S)[nH]1` , system UCD52. 92.7

Specify cell viability for COc1ccc(Cl)cc1C(=O)NCCc1ccc(S(=O)(=O)NC(=O)NC2CCCCC2)cc1 [Glibenclamide] , system UCD52. 119

Specify cell viability for CC(C)(C)NCC(O)c1ccc(O)c(CO)c1.O=S(=O)(O)O (configuration not stated) [Salbutamol Sulfate] , system UCD52. 85.4

----------
In this section we review reported cell viability values for a set of compounds.
System: HCI11
test_name: cell viability (% of vehicle); higher = less cytotoxic
condition_details: 10 µM; 72 h
Enter the number alone.

NC(=O)C1CCCc2c1[nH]c1ccc(Cl)cc21 (stereo not given)	128

Answer with the recorded cell viability for the compound listed here: CC1Cc2ccccc2N1NC(=O)c1ccc(Cl)c(S(N)(=O)=O)c1 (stereo not given) [Indapamide] 88.8

Answer with the recorded cell viability for the compound listed here: C=CC(=O)N1CCCC(n2nc(-c3ccc(Oc4ccccc4)cc3)c3c(N)ncnc32)C1 (stereo not given) 83.8

Answer with the recorded cell viability for the compound listed here: CC(C)(C)NC(=O)C1CC2CCCCC2CN1CC(O)C(Cc1ccccc1)NC(=O)C(CC(N)=O)NC(=O)c1ccc2ccccc2n1.CS(=O)(=O)O (stereo not given) [Saquinavir mesylate] 95.3

Answer with the recorded cell viability for the compound listed here: O=C1CCC(N2C(=O)c3ccccc3C2=O)C(=O)N1 (stereo not given) [Thalidomide] 103

----------
System: WHIM2
test_name: cell viability (% of vehicle); higher = less cytotoxic
condition_details: 10 µM; 72 h
Dear colleague, classification is by cell viability, with ranges listed here: low (below 80), mid (80 to below 90), high (90 or more)

Place this compound in its band: c1coc(CNc2ncnc3nc[nH]c23)c1 [Kinetin] high

Place this compound in its band: Cc1noc(NS(=O)(=O)c2ccc(N)cc2)c1C [Sulfisoxazole] mid

Place this compound in its band: CC(=O)Oc1cc2c(s1)CCN(C(C(=O)C1CC1)c1ccccc1F)C2.Cl (stereo unspecified) [Prasugrel hydrochloride] high

Place this compound in its band: CCN(CC)CCOc1ccc(C(=C(Cl)c2ccccc2)c2ccccc2)cc1.O=C(O)CC(O)(CC(=O)O)C(=O)O [Clomiphene citrate] low

Place this compound in its band: Cn1cnc([N+](=O)[O-])c1Sc1ncnc2nc[nH]c12 [Azathioprine] low

Place this compound in its band: CN1C2CCC1CC(OC(c1ccccc1)c1ccccc1)C2.CS(=O)(=O)O (stereo unspecified) [Benztropine mesylate] mid

Place this compound in its band: CC(=O)O.CC(=O)O.CCC(C)CC(C)CCCCCCCCC(=O)NC1CC(O)C(NCCN)NC(=O)C2C(O)CCN2C(=O)C(C(O)CCN)NC(=O)C(C(O)C(O)c2ccc(O)cc2)NC(=O)C2CC(O)CN2C(=O)C(C(C)O)NC1=O (stereo unspecified) [Caspofungin Acetate] high

Place this compound in its band: COc1cc2c(cc1OC)C(=O)C(CC1CCN(Cc3ccccc3)CC1)C2.Cl (stereo unspecified) [Donepezil HCl] mid

Place this compound in its band: CC(=O)Oc1cccc2c1C(=O)c1c(OC(C)=O)cc(C(=O)O)cc1C2=O [Diacerein] high

Place this compound in its band: CCOc1ccc(Cc2cc(C3OC(CO)C(O)C(O)C3O)ccc2Cl)cc1 (stereo unspecified) [Dapagliflozin] mid

Place this compound in its band: CCCCCOC(=O)Nc1nc(=O)n(C2OC(C)C(O)C2O)cc1F (stereo unspecified) [Capecitabine] high

Place this compound in its band: COc1cc(C(=O)NC2CCCNC2)cc(OC)c1OC (stereo unspecified) [Troxipide] high

Place this compound in its band: OC(Cn1cncn1)(Cn1cncn1)c1ccc(F)cc1F [Fluconazole] high

Place this compound in its band: CCOC(=O)c1c(CSc2ccccc2)n(C)c2cc(Br)c(O)c(CN(C)C)c12.Cl [Arbidol HCl] low
